tested system: Neu5Ac(a2-3)[Neu5Ac(a2-6)]GalNAc
experimental protocol: glycan array binding signal (z-score within array); higher = stronger binding
run parameters: glycan notation: IUPAC condensed, linker removed
The sample as a whole holds a higher share of the strongest signals than the screen did.
Reported glycan array binding signal (z-score) is given for each of the following binders.

>  <binder>
RBMC2 (Vibrio cholerae) (protein) KISVRSGFAIDAIGASASTLVGGTGGNLNAAVNVKDIKAIDLTWGKYYWGGYHLLALDFRMSNGSVISMGSKNYAYSKQTERFTVPAGSRIKGIKAWTAGWLLDGVQFELA

>  <value reported>
-0.245

$$$$
>  <binder>
FaeGab (Escherichia coli) (protein) WMTGDFNGSVDIGGSITADDYRQKWEWKVGTGLNGFGNVLNDLTNGGTKLTITVTGNKPILLGRTKEAFATPVSGGVDGIPQIAFTDYEGASVKLRNTDGETNKGLAYFVLPMKNAEGTKVGSVKVNASYAGVFGKGGVTSADGELFSLFADGLRAIFYGGLTTTVSGAALTSGSAAAARTELFGSLSRNDILGQIQRVNANITSLVDVAGSYREDMEYTDGTVVSAAYALGIANGQTIEATFNQAVTTSTQWSAPLNVAITYY

>  <value reported>
-0.489

$$$$

Turning now to a further record.
Input line: Give its glycan array binding signal (z-score) value. Item: PEB1 (Campylobacter jejuni), Q0P9X8 (protein) MVFRKSLLKLAVFALGACVAFSNANAAEGKLESIKSKGQLIVGVKNDVPHYALLDQATGEIKGFEVDVAKLLAKSILGDDKKIKLVAVNAKTRGPLLDNGSVDAVIATFTITPERKRIYNFSEPYYQDAIGLLVLKEKKYKSLADMKGANIGVAQAATTKKAIGEAAKKIGIDVKFSEFPDYPSIKAALDAKRVDAFSVDKSILLGYVDDKSEILPDSFEPQSYGIVTKKDDPAFAKYVDDFVKEHKNEIDALAKKWGL
Output line: -0.361
